details: 293.15 K; 101.33 kPa; Liquid; Parallel plate method
valueType: thermal conductivity (W/m/K)
The reply should contain only the number, in W/m/K.

# example entries with known answers
{"compound": "CCCCCCCCn1cc[n+](C)c1.N#C[B-](C#N)(C#N)C#N [1-methyl-3-octylimidazolium tetracyanoborate]", "valueMeasured": 0.1694}
{"compound": "CCCCn1cc[n+](C)c1.N#C[B-](C#N)(C#N)C#N [1-butyl-3-methyl-1H-imidazolium tetracyanoborate]", "valueMeasured": 0.1791}
{"compound": "CCCCCC[n+]1ccn(C)c1.N#C[C-](C#N)C#N [3-hexyl-1-methylimidazolium tricyanomethanide]", "valueMeasured": 0.1815}
{"compound": "CCCCCCCCCC[n+]1ccn(C)c1.N#C[C-](C#N)C#N [3-decyl-1-methylimidazolium tricyanomethanide]", "valueMeasured": 0.1694}
{"compound": "CCCCCCCCn1cc[n+](C)c1.N#CC(=C=[N-])C#N [1-methyl-3-octylimidazolium tricyanomethanide]", "valueMeasured": 0.1689}

The compound CCCCCCn1cc[n+](C)c1.N#C[B-](C#N)(C#N)C#N [1-hexyl-3-methylimidazolium tetracyanoborate] showed thermal conductivity equal to 0.1752

For this compound ( CCCCCCCCCCn1cc[n+](C)c1.N#C[B-](C#N)(C#N)C#N [1-decyl-3-methyl-1H-imidazolium tetracyanoborate] ), measured thermal conductivity is 0.1673

thermal conductivity reading for CCn1cc[n+](C)c1.N#C[C-](C#N)C#N [1-ethyl-3-methyl-1H-imidazolium tricyanomethanide] : 0.1958
